Each entry below lists one item and its recorded In vitro activity (%) compared with native peptide, vs Glucagon value.
target: human GCG receptor (human, UniProt P47871 26-477); test: cell-based or functional assay
Sequence (P47871 26-477): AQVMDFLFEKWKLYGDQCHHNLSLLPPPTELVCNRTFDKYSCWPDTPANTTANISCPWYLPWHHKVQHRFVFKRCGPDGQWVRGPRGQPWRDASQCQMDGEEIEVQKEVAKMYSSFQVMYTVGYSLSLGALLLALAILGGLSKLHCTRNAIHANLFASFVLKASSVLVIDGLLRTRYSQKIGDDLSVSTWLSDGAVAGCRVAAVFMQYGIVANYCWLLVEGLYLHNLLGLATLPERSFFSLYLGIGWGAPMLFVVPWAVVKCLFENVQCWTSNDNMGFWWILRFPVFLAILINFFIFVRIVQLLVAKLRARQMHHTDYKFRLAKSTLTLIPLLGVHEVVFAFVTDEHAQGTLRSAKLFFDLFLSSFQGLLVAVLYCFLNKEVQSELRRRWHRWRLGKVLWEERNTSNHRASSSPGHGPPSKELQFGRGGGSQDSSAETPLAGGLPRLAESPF
Bridge positions count the residues as written; N and C are the ends. Square brackets hold non-standard residues; d marks the D form. Ends that are not written are not given here. * marks the point of attachment. Acetyl(2-(4-imidazolyl)) = O=C(Cc1c[nH]cn1)*; Aib = CC(C)(N)C(=O)O
Kindly answer with a numeric value in %, unit omitted.

INSERT INTO measurements (binder, measured_value) VALUES
  ('{Acetyl(2-(4-imidazolyl))}-[Aib]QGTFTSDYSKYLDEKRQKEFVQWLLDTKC (bridge 15-19; numbers in words are those of the source; also: ring between positions 16 and 20, type not given here) [triple agonist of SEQ ID NO: 89]', 0.7);

With those in mind, consider the next binder.
In: Entry Y[Aib]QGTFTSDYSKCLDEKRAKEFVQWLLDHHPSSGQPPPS (bridge 16-20) [triple agonist of SEQ ID NO: 22] has what In vitro activity (%) compared with native peptide, vs Glucagon?
Out: 140

Cited source for all entries: patent US20230355720A1
